Just for reference, patent US20250387371A1 is where these values come from.

Test Protocol: physchem
Assay type: physicochemical
Metric: solubility (µg/mL)

{"Molecule": "Clc1ccc(CSC(Cn2ccnc2)c2ccc(Cl)cc2Cl)cc1 (stereo not shown) [sulconazole]", "Uom": "µg/mL", "Result Value": 240}
